Each entry below carries its reported growth.
Test system: PC-3 prostate
assay-info: NCI-60 one-dose screen, 48 h (100 = growth as untreated, 0 = no growth, -100 = all killed)
test-settings: 10 µM
About 83,000 compounds went through this panel and 20% of them were active in at least one assay; those are over-represented in the sample as a whole.
I only need the number, in %, no unit after it.

As a guide, the following entries are already answered.
compound | system-under-test | property-name | measure-unit | reported-measurement
CCN1CCN(Cc2ccc(C(=O)Nc3cccc(-c4cn(-c5ccc6oc(=O)ccc6c5)nn4)c3)cc2C(F)(F)F)CC1 | PC-3 prostate | growth | % | -40.8
CO[C@@H]1CSS[C@H]1Cn1nc(-c2ccc(Oc3ccccc3)cc2)c2c(N)ncnc21 | PC-3 prostate | growth | % | 51.7
O=C(c1ccc(Cl)cc1)C1[C@H](c2ccccc2Br)[C@@H](c2ccccc2)NC12C(=O)Nc1ccc(Cl)cc12 (some centres not stated) | PC-3 prostate | growth | % | 38.1

Value of growth reported for the compound Cn1cc(-c2cc(N)n3nc(-c4c[nH]c5ccc(Br)cc45)cc3n2)c2cc(Br)cnc21 is -44.8

Value of growth reported for the compound O=C(CSc1nnc(-c2ccc3nc(-c4ccc(Cl)cc4)[nH]c3c2)o1)Nc1ccc(Cl)cc1 is -7.65

Value of growth reported for the compound Cc1ccc([N+](=O)[O-])c(C(=O)Nc2ccc(-c3ccc4c(c3)NC(=O)/C4=C\c3ccc[nH]3)cc2)c1 is 21.3

Value of growth reported for the compound CCOC(=O)C1=C(N)N(c2ccccc2)C2=C(C(=O)CC(C)(C)C2)C1c1ccc(Cl)cc1 (configuration not stated) is 21.6

Value of growth reported for the compound C#CCNC(=O)CCC(=O)OC[C@]12CC[C@@H](C(=C)C)[C@@H]1C1CC[C@@H]3[C@@]4(C)CCCNC(C)(C)[C@@H]4CC[C@@]3(C)[C@]1(C)CC2 (some centres not stated) is -20.3

###

Each entry below carries its reported growth.
System: SK-OV-3 ovarian
assay-info: NCI-60 one-dose screen, 48 h (100 = growth as untreated, 0 = no growth, -100 = all killed)
test-settings: 10 µM
The panel holds about 83,000 compounds, 20% with a hit somewhere; the sample as a whole holds those more often. Calls of active or inactive are those of the source. The calls were made as follows: active = growth percent below 10; inactive = the rest.

Value of growth reported for the compound COc1ccc(/C=C/C(=O)c2ccc(N3CCN(C)CC3)cc2)c(C(F)(F)F)c1 is 63.7% (inactive)

Value of growth reported for the compound O=C(Cc1ccc2c(c1)CN(C1CCC(=O)NC1=O)C2=O)NCCc1ccccc1 (configuration not stated) is 28% (inactive)

Value of growth reported for the compound N#Cc1ccc(-c2nn(-c3ccc(C(=O)O)cc3)cc2CNc2cc(Cl)cc(C(F)(F)F)c2)cc1 is 55.2% (inactive)

Value of growth reported for the compound Cc1ccc(NCC(=O)Nn2c(COc3ccccc3)nc3ccccc3c2=O)cc1 is 52.8% (inactive)

Value of growth reported for the compound CC(=O)Nc1nc(-c2ccc(N3CCN(C)CC3)c(NS(=O)(=O)c3cccc4c(N(C)C)cccc34)c2)cs1 is 63.9% (inactive)

Value of growth reported for the compound CC(=O)OC[C@@]1(C)C2CC[C@]3(C)C(CC=C4C5CC(C)(C)CC[C@]5(C(=O)Nc5ccccc5)CC[C@]43C)[C@@]2(C)C[C@@H](OC(C)=O)[C@@H]1OC(C)=O (some centres not stated) is 45.2% (inactive)

Value of growth reported for the compound CC1(C)CC[C@]2(C(=O)N3CCOCC3)CC[C@]3(C)C(=CC[C@@H]4[C@@]5(C)CC[C@H](NCO)C(C)(C)[C@@H]5CC[C@]43C)[C@H]2C1 is -86.4% (active)

###

System: OVCAR-3 ovarian
assay-info: NCI-60 one-dose screen, 48 h
test-settings: 10 µM
This is part of a sample that, as a whole, favours compounds with a hit. Of some 83,000 tested, about 20% had one in any assay. Active and inactive are the calls of the source. Rule for the calls: active = growth percent below 10; inactive = the rest.
Thanks in advance; please answer with one of these: active, inactive

Record excerpt, results attached:
compound | assigned-category
C=C1CCC2C3(C)COC(c4c(F)cccc4F)OC3CCC2(C)C1C/C=C1/C(=O)OCC1O (centres undefined) | active
O=C(c1ccccc1)n1ccc(-c2cc3cc(Br)ccc3oc2=O)n1 | inactive

Below: the item to evaluate.
Q) Field: outcome | Entry: O=c1[nH]c2ccccc2cc1CSc1ccc(Nc2nccc(-c3ccc4c(c3)OCO4)n2)cc1
A) inactive

###

Test system: 786-0 renal
assay-info: NCI-60 one-dose screen, 48 h
test-settings: 10 µM
About 83,000 compounds went through this panel and 20% of them were active in at least one assay; those are over-represented in the sample as a whole. Activity calls are given as the source filed them. Rule for the calls: active = growth percent below 10; inactive = the rest.
Thanks in advance; please answer with one of these: 1.0 for active, 0.0 for inactive

Record excerpt, results attached:
compound | system-under-test | assigned-category
CN1CCN(Cc2ccc(NC(=O)c3cncc(C#Cc4cnc5ccc(N[C@H]6CCOC6)nn45)c3)cc2C(F)(F)F)CC1 | 786-0 renal | 1.0
COc1ccc2[nH]c(O)c(N=NC(=O)COc3ccc(NC(=O)Nc4ccc(Cl)cc4)cc3)c2c1 | 786-0 renal | 0.0

Q) Field: outcome | Entry: COc1cc2c(c(OC)c1OC)C(=O)CC(c1cccc(NC(=O)c3cccc(N)c3)c1)O2 (configuration not stated)
A) 0.0

Q) Field: outcome | Entry: CN1CCN(c2ccc(Nc3nc(NCCCNC(=O)c4ccc(Cl)cc4)c4sccc4n3)cc2)CC1
A) 1.0

Q) Field: outcome | Entry: O=C(Cn1nc(-c2ccccc2)ccc1=O)NN1C(=O)c2ccccc2C1=O
A) 0.0

Q) Field: outcome | Entry: N#Cc1c(-c2ccc(Cl)cc2)cc(-c2ccccc2)nc1OCc1ccccc1
A) 0.0

Q) Field: outcome | Entry: CC1(c2ccccc2)NC(=O)N(CC(=O)Nc2ccc(C(=O)/C=C/c3ccccc3)cc2)C1=O (configuration not stated)
A) 0.0

Q) Field: outcome | Entry: N[C@@H](CSSC[C@H](N)C(=O)Nc1ccc(OCC2CCCC2)cc1)C(=O)Nc1ccc(OCC2CCCC2)cc1
A) 1.0

###

Tested on: EKVX NSCLC
assay-info: NCI-60 one-dose screen, 48 h (100 = growth as untreated, 0 = no growth, -100 = all killed)
test-settings: 10 µM
Description: Growth inhibition of the EKVX human Non-Small Cell Lung tumor cell line is measured as a screen for anti-cancer activity. Cells are grown in 96 well plates and exposed to the test compound for 48 hours. Compounds are tested at a single concentration, which is 10^-5 M for most compounds. The reported endpoint is percent growth (GI% or GIPRCNT), where numbers from 0 - 100% represent growth inhibition, and numbers from -100% - 0 represent cell death. […]
About 83,000 compounds went through this panel and 20% of them were active in at least one assay; those are over-represented in the sample as a whole.
property-name: growth (%)
I only need the number, in %, no unit after it.

As a guide, the following entries are already answered.
compound | property-name | reported-measurement
O=c1[nH]n(C(=S)N/N=C/c2ccc(F)cc2)c(=O)c2ccccc12 | growth | 88.2
N#Cc1c(-c2ccc(Cl)cc2)cc(-c2ccccc2)nc1OCc1ccccc1 | growth | 52.6
O=C(NCCCCC(c1ccc(F)cc1)c1ccc(F)cc1)NCCCc1cccnc1 | growth | 27.4
COc1cc(/C=C/C(=O)c2ccc(F)cc2)ccc1Oc1nc(Nc2ccc(F)cc2)nc(N(C)C)n1 | growth | 50.1
COc1ccc(-c2cc(C(=O)N=Nc3c(O)[nH]c4ccc(Br)cc34)c3ccccc3n2)cc1 | growth | 44.4
CCOC(=O)N/C(=C1/OCCN1C)[P+](c1ccccc1)(c1ccccc1)c1ccccc1 | growth | 64.3
O=C(Nc1cccc(C(F)(F)F)c1)c1cncc(C#Cc2cnc3ccc(N4CCOCC4)nn23)c1 | growth | -22.3
COc1ccc(/C=N/N=C(\C)c2ccc3c(c2)Nc2ccccc2S3)cc1O | growth | 40.4
Cc1cc(C)nc(/N=C(\N)Nc2ccc(S(=O)(=O)Nc3nc(C)cc(C)n3)cc2)n1 | growth | 104
Clc1ccc2c(N/N=C/c3c[nH]c4ccc(Br)cc34)ccnc2c1 | growth | -93

Note to self: growth of O=S(=O)(Nc1ncccn1)c1ccc(-n2c(-c3ccc(Br)cc3)nc(-c3ccccc3)c2-c2ccccc2)cc1 with EKVX NSCLC was 16.1

Note to self: growth of Nc1nc(-c2ccccc2)cs1 with EKVX NSCLC was 32

Note to self: growth of CC1=C2C(=C[C@@](C)(CO)[C@@H]2O)/C(=N\N)[C@](C)(O)C12CC2 with EKVX NSCLC was -44.2

Note to self: growth of O=C(c1ccc(Cl)cc1)C1[C@H](c2ccc(Br)cc2)[C@@H](c2ccccc2)NC12C(=O)Nc1ccc(Br)cc12 (some centres undefined) with EKVX NSCLC was -61.1

Note to self: growth of CN(C(=O)c1ccc(C(F)(F)F)cc1C(F)(F)F)c1sc2c(c1C#N)CCC(=O)C2 with EKVX NSCLC was 73.7

Note to self: growth of COc1ccc(CCN2C(=O)/C(=C/c3csc(C#N)n3)SC2=S)cc1 with EKVX NSCLC was 20

Note to self: growth of COc1cccc2nc(Nc3cccc(NC(=O)c4ccc(CN5CCCN(C)CC5)c(C(F)(F)F)c4)c3)ccc12 with EKVX NSCLC was -98.9

Note to self: growth of N#Cc1ccc(-c2nn(-c3ccc(C(=O)O)cc3)cc2CNc2cc(Cl)cc(Cl)c2)cc1 with EKVX NSCLC was 63.3

Note to self: growth of COc1ccccc1[C@H]1C(C(=O)c2ccc(O)cc2)C2(N[C@@H]1c1ccccc1)C(=O)Nc1ccc(Br)cc12 (some centres undefined) with EKVX NSCLC was 30
